B1: FAM189A2 (parent)
chain: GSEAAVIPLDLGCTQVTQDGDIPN

Variants of: B1
Experiment: protein stability index of a GFP-peptide fusion (GPS, HEK-293T) (PSI 1-6); higher = more stable;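 further: lentivirally expressed fusions sorted by FACS into six bins by GFP to DsRed ratio, PSI derived from sequencing read proportions per bin multiplied by bin number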
Conditions: c terminus: a fixed tail appended
Label class 1 for high-side protein stability index (at or above 5) and class 0 for low-side protein stability index (below it).

V6K: class 1
T14D: class 1
I22Y: class 1
A4P: class 1
V16W: class 0
P23G: class 1
P23S: class 1
V6E: class 1
I7M: class 1
L9R: class 1
I22R: class 1
L9K: class 1
A4F: class 0
Q18M: class 0
A4Q: class 1
G1D: class 1
Q15R: class 0
E3F: class 0
T17I: class 0
L9M: class 1
V16I: class 1
C13L: class 1
V16N: class 1
L9H: class 1
Q18W: class 0
P8T: class 0
G1W: class 0
V6D: class 1
T14W: class 0
